Recorded values, source paper PMC11899342.

# Procedure Summary: Single-dose acute toxicity, intragastric administration
# Assay type: in vivo, rat
# Experimental Conditions: both sexes, Wistar, rat, in vivo, po; rats, intragastric, single dose; read-out: maximum tolerated dose
Measured Metric: MTD at 14 days (mg/kg)
Expressed in mg/kg, but write only the number.

[in] Form field: reported MTD at 14 days of CCOC(=O)c1[nH]c2cc(F)ccc2c1/N=N/N1CCCC1
[out] 600

----------
# Target System: hERG K+-ion channel (Homo sapiens, UniProt Q12809)
# Sequence (Q12809 whole entry): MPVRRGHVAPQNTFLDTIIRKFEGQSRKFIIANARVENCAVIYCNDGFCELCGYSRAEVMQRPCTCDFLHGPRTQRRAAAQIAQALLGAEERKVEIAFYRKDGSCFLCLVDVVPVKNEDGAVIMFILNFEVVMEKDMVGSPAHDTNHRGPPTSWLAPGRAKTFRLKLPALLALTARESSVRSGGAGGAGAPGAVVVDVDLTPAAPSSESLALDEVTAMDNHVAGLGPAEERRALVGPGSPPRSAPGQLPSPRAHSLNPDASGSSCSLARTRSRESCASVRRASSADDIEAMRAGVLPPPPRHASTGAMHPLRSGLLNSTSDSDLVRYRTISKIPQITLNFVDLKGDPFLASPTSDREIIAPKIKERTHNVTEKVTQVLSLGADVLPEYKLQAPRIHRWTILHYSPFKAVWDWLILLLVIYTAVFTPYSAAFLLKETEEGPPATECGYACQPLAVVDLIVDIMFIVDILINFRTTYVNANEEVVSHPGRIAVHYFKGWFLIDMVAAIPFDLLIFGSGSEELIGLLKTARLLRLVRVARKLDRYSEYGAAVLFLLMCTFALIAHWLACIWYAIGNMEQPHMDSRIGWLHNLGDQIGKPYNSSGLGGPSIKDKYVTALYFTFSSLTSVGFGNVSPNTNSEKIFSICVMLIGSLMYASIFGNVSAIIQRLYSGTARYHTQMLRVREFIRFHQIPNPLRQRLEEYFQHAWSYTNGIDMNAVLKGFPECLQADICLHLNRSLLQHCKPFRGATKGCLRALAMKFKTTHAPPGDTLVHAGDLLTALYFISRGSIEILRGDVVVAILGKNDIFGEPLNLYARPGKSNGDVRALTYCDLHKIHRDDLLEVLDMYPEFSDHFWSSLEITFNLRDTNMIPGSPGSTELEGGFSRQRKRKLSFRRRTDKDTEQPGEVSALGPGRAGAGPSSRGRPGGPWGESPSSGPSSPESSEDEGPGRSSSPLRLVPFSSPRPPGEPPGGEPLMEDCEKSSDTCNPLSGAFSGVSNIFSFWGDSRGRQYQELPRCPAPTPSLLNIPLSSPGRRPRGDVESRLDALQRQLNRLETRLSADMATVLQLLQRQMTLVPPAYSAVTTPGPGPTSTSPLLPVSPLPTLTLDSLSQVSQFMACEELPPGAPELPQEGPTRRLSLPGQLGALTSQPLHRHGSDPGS
# Procedure Summary: Predictor hERG fluorescence polarization assay
# Experimental Conditions: tracer displacement, up to 50 µM
Measured Metric: IC50

[in] Which IC50 value is on record for CCOC(=O)c1[nH]c2cc(F)ccc2c1/N=N/N1CCCC1 [BX-SI043] ?
[out] > 50 µM

----------
# Procedure Summary: Solubility in water by HPLC
# Type: physicochemical
# Experimental Conditions: water, kinetic from dmso stock, read-out: Solubility in water, mass concentration
solubility at 5 min of 30 µg/mL or higher: Yes. Under 30 µg/mL: No.

> print(dat)
                                   compound  label.class
1  CCOC(=O)c1[nH]c2ccccc2c1/N=N/N(C)CCN(C)C [BX-SI010]          Yes
2  CCOC(=O)c1c(/N=N/N(CC)CC)c2cccnc2n1C [BX-SI019]          Yes

[in] Reported solubility at 5 min at or above 30 µg/mL? CCOC(=O)c1[nH]c2cc(F)ccc2c1/N=N/N1CCN(C)CC1 [BX-SI035]
[out] No

[in] Can you check CCOC(=O)c1c(/N=N/N(C)CCN(C)C)c2cccnc2n1C [BX-SI027] next?
[out] Yes

[in] Field entry: CCOC(=O)c1[nH]c2cc(F)ccc2c1/N=N/N1CCN(Cc2ccccc2)CC1 [BX-SI038]
[out] No

[in] Entry CCOC(=O)c1[nH]c2ncccc2c1/N=N/N1CCC(C)CC1 [BX-SI058] please
[out] No

[in] And what about the compound CCOC(=O)c1[nH]c2cc(F)ccc2c1/N=N/N1CCC(C)CC1 [BX-SI045] ?
[out] No

[in] How about CCOC(=O)c1c(/N=N/N2CCN(Cc3ccccc3)CC2)c2cccnc2n1C [BX-SI021] ?
[out] No

----------
# Tested on: MRSA clinical isolates
# Procedure Summary: Antibiotic susceptibility profile of MRSA clinical isolates (EUCAST breakpoints)
# Format: cell-based, Staphylococcus aureus
# Experimental Conditions: MRSA strain 44
Measured Metric: Drug sensibility profile

Check out these entries, answers already filled in.
Compound	Drug sensibility profile
CN(C)c1cc(NC(=O)CNC(C)(C)C)c(O)c2c1C[C@H]1C[C@H]3[C@H](N(C)C)C(O)=C(C(N)=O)C(=O)[C@@]3(O)C(O)=C1C2=O	S
CC(=O)NC[C@H]1CN(c2ccc(N3CCOCC3)c(F)c2)C(=O)O1	S
CC[C@H]1OC(=O)[C@H](C)[C@@H](O[C@H]2C[C@@](C)(OC)[C@@H](O)[C@H](C)O2)[C@H](C)[C@@H](O[C@@H]2O[C@H](C)C[C@H](N(C)C)[C@H]2O)[C@](C)(O)C[C@@H](C)C(=O)[C@H](C)[C@@H](O)[C@]1(C)O	I
CCC[C@@H]1C[C@@H](C(=O)N[C@@H]([C@H]2O[C@H](SC)[C@H](O)[C@@H](O)[C@H]2O)[C@H](C)Cl)N(C)C1	S

[in] // Drug sensibility profile lookup, key: CC(=O)O[C@H]1C[C@@]2(C)[C@@H](C[C@@H](O)[C@H]3[C@@]4(C)CC[C@@H](O)[C@@H](C)[C@@H]4CC[C@@]32C)/C1=C(\CCC=C(C)C)C(=O)O
[out] S

[in] Moving on to CO/N=C(\C(=O)N[C@@H]1C(=O)N2C(C(=O)O)=C(COC(C)=O)CS[C@H]12)c1csc(N)n1
[out] R

[in] Try this compound next: CN[C@H](CC(C)C)C(=O)N[C@H]1C(=O)N[C@@H](CC(N)=O)C(=O)N[C@H]2C(=O)N[C@H]3C(=O)N[C@H](C(=O)N[C@H](C(=O)O)c4cc(O)cc(O)c4-c4cc3ccc4O)[C@H](O)c3ccc(c(Cl)c3)Oc3cc2cc(c3O[C@@H]2O[C@H](CO)[C@@H](O)[C@H](O)[C@H]2O[C@H]2C[C@](C)(N)[C@H](O)[C@H](C)O2)Oc2ccc(cc2Cl)[C@H]1O
[out] S

[in] Please answer likewise for C/C(=C\C(=O)OCCCCCCCCC(=O)O)C[C@@H]1OC[C@H](C[C@@H]2O[C@H]2[C@@H](C)[C@H](C)O)[C@@H](O)[C@H]1O
[out] S

----------
# Procedure Summary: Stability in artificial gastric juice
# Assay type: in vitro ADME
# Experimental Conditions: pH 1.2, pepsin, 37 °C, read-out: t1/2 in artificial gastric juice
Measured Metric: half-life at 1 µM

[in] Quick one: half-life at 1 µM for CCOC(=O)c1[nH]c2cc(F)ccc2c1/N=N/N1CCCC1 ?
[out] < 10 min

----------
# Test system: MRSA clinical isolates
# Procedure Summary: Antibiotic susceptibility profile of MRSA clinical isolates (EUCAST breakpoints)
# Assay type: cell-based, Staphylococcus aureus
# Experimental Conditions: MRSA strain 14
Measured Metric: Drug sensibility profile

These recorded examples may help you get a feel for the data.
Molecule	Drug sensibility profile
CC(=O)NC[C@H]1CN(c2ccc(N3CCOCC3)c(F)c2)C(=O)O1 [Linezolid, linezolid]	S
CCCCCCCCCC(=O)N[C@@H](Cc1c[nH]c2ccccc12)C(=O)N[C@H](CC(N)=O)C(=O)N[C@@H](CC(=O)O)C(=O)N[C@@H]1C(=O)NCC(=O)N[C@@H](CCCN)C(=O)N[C@@H](CC(=O)O)C(=O)N[C@H](C)C(=O)N[C@@H](CC(=O)O)C(=O)NCC(=O)N[C@H](CO)C(=O)N[C@@H]([C@H](C)CC(=O)O)C(=O)N[C@@H](CC(=O)c2ccccc2N)C(=O)O[C@@H]1C [Daptomycine]	S
CC(=O)O[C@H]1C[C@@]2(C)[C@@H](C[C@@H](O)[C@H]3[C@@]4(C)CC[C@@H](O)[C@@H](C)[C@@H]4CC[C@@]32C)/C1=C(\CCC=C(C)C)C(=O)O [Fusidic acid]	S
CNC(C)C1CCC(N)C(OC2C(N)CC(N)C(OC3OCC(C)(O)C(NC)C3O)C2O)O1 (stereo not shown) [GEN, gentamicin]	R
CO/N=C(\C(=O)N[C@@H]1C(=O)N2C(C(=O)O)=C(COC(C)=O)CS[C@H]12)c1csc(N)n1 [CEF, cefotaxime]	S

[in] I'd like to know its Drug sensibility profile. The molecule in question is C/C(=C\C(=O)OCCCCCCCCC(=O)O)C[C@@H]1OC[C@H](C[C@@H]2O[C@H]2[C@@H](C)[C@H](C)O)[C@@H](O)[C@H]1O [Mupirocin]
[out] S

[in] Subsequent entry: Cc1cc(NS(=O)(=O)c2ccc(N)cc2)no1 [SUL, sulfamethoxazole]
[out] S

[in] Note, next up: CC[C@H]1OC(=O)[C@H](C)[C@@H](O[C@H]2C[C@@](C)(OC)[C@@H](O)[C@H](C)O2)[C@H](C)[C@@H](O[C@@H]2O[C@H](C)C[C@H](N(C)C)[C@H]2O)[C@](C)(O)C[C@@H](C)C(=O)[C@H](C)[C@@H](O)[C@]1(C)O [ERI, erythromycin]
[out] R

[in] Param item: Cn1nnc(-c2ccc(-c3ccc(N4C[C@H](CO)OC4=O)cc3F)cn2)n1 [Tedizolid]
[out] S

[in] Now this one: CCC[C@@H]1C[C@@H](C(=O)N[C@@H]([C@H]2O[C@H](SC)[C@H](O)[C@@H](O)[C@H]2O)[C@H](C)Cl)N(C)C1 [CLIND, clindamycin]
[out] R

----------
# Test system: MRSA clinical isolates
# Procedure Summary: Antibiotic susceptibility profile of MRSA clinical isolates (EUCAST breakpoints)
# Type: cell-based, Staphylococcus aureus
# Experimental Conditions: MRSA strain 27
Measured Metric: Drug sensibility profile

Some entries whose results are on file:
Compound	Drug sensibility profile
CN(C)c1cc(NC(=O)CNC(C)(C)C)c(O)c2c1C[C@H]1C[C@H]3[C@H](N(C)C)C(O)=C(C(N)=O)C(=O)[C@@]3(O)C(O)=C1C2=O [Tigecycline]	S
CC[C@H]1OC(=O)[C@H](C)[C@@H](O[C@H]2C[C@@](C)(OC)[C@@H](O)[C@H](C)O2)[C@H](C)[C@@H](O[C@@H]2O[C@H](C)C[C@H](N(C)C)[C@H]2O)[C@](C)(O)C[C@@H](C)C(=O)[C@H](C)[C@@H](O)[C@]1(C)O [ERI, erythromycin]	S
CCC[C@@H]1C[C@@H](C(=O)N[C@@H]([C@H]2O[C@H](SC)[C@H](O)[C@@H](O)[C@H]2O)[C@H](C)Cl)N(C)C1 [CLIND, clindamycin]	S
CC(=O)O[C@H]1C[C@@]2(C)[C@@H](C[C@@H](O)[C@H]3[C@@]4(C)CC[C@@H](O)[C@@H](C)[C@@H]4CC[C@@]32C)/C1=C(\CCC=C(C)C)C(=O)O [Fusidic acid]	S
Cn1nnc(-c2ccc(-c3ccc(N4C[C@H](CO)OC4=O)cc3F)cn2)n1 [Tedizolid]	S
CN(C)[C@@H]1C(O)=C(C(N)=O)C(=O)[C@@]2(O)C(O)=C3C(=O)c4c(O)cccc4[C@@](C)(O)[C@H]3C[C@@H]12 [TET, tetracycline]	R
CCCCCCCCCCNCCN[C@@]1(C)C[C@H](O[C@H]2[C@H](Oc3c4cc5cc3Oc3ccc(cc3Cl)[C@@H](O)[C@@H](NC(=O)[C@@H](CC(C)C)NC)C(=O)N[C@@H](CC(N)=O)C(=O)N[C@H]5C(=O)N[C@H]3C(=O)N[C@H](C(=O)N[C@H](C(=O)O)c5cc(O)c(CNCP(=O)(O)O)c(O)c5-c5cc3ccc5O)[C@H](O)c3ccc(c(Cl)c3)O4)O[C@H](CO)[C@@H](O)[C@@H]2O)O[C@@H](C)[C@H]1O [Telavancin]	S

Turning now to a further record.
[in] Name the recorded Drug sensibility profile for CO/N=C(\C(=O)N[C@@H]1C(=O)N2C(C(=O)O)=C(COC(C)=O)CS[C@H]12)c1csc(N)n1 [CEF, cefotaxime] .
[out] R
